Test system: P12-Ichikawa
procedure.text: cell viability relative to DMSO control; higher = less cytotoxic
study.conditions: RPMI 5 mM glucose + 10% dialyzed FBS; 48 h; 15.4 µM
Note to self: cell viability under 80% means Fulfilled, ties and anything higher get Not fulfilled.

Use the examples below as a reference point.
Cc1cc(C(=O)N2CCN(c3cccc(Cl)c3)CC2)n(-c2ccccc2)n1 ... Fulfilled
CN(C)CCCN1c2ccccc2CCc2ccc(Cl)cc21 ... Not fulfilled
C/C(O)=C(\C#N)C(=O)Nc1cc(Br)ccc1Br ... Not fulfilled
CCN(CC)CCCCNc1ncc2c(n1)N(C)C(=O)N(c1c(Cl)c(OC)cc(OC)c1Cl)C2 ... Not fulfilled
O=C(O)CCn1c2c(c3ccccc31)C[C@H](N[S+](=O)([O-])c1ccc(F)cc1)CC2 ... Not fulfilled
CCOC(=O)c1cncn1[C@H](C)c1ccccc1 ... Not fulfilled

stdin: Could you please tell me whether cell viability recorded for CCN(C(=O)C/1=C(O)/C2=C(C=CC=C2Cl)N(C)C1=O)C3=CC=CC=C3 is less than 80%?
stdout: Fulfilled

stdin: Check if cell viability falls below 80% for CN1c2ccccc2C(=O)N2CCc3c([nH]c4ccccc34)C21 (centres undefined) .
stdout: Not fulfilled

stdin: Please indicate whether the reported cell viability of CC1=C(CC(=O)O)c2cc(F)ccc2/C1=C\c1ccc([S+](C)[O-])cc1 (centres undefined) is strictly below 80%.
stdout: Not fulfilled

stdin: Bench note: check whether Cn1c(=O)n(-c2ccc(C(C)(C)C#N)cc2)c2c3cc(-c4cnc5ccccc5c4)ccc3ncc21 shows cell viability below 80%
stdout: Fulfilled

stdin: Does the reported cell viability of the following compound sit strictly below 80%? Cc1csc(NC(=O)c2sc3nc4c(c(C(F)(F)F)c3c2N)CCC4)n1
stdout: Fulfilled

stdin: API: query returns whether the compound falls strictly under 80% in cell viability. Query: CC[C@H](C)C(=O)O[C@H]1C[C@H](O)\C=C2\C=C/[C@H](C)[C@H](CC[C@@H](O)C[C@@H](O)CC(O)=O)[C@@H]12
stdout: Not fulfilled

stdin: Consider CC(C)c1ccc(Cn2ccc3c4c(N)nc(NC5CC5)nc4ccc32)cc1 . Does its cell viability lie strictly below 80%?
stdout: Fulfilled

stdin: Consider COc1ccc(C2Sc3ccccc3N(CCN(C)C)C(=O)C2OC(C)=O)cc1 (centres undefined) . Does its cell viability lie strictly below 80%?
stdout: Not fulfilled

stdin: Does the reported cell viability of Nc1ncnc2ccccc12 stay below 80%?
stdout: Not fulfilled

stdin: Please determine if O=C(c1ccc(F)c(F)c1Nc1ccc(I)cc1F)N1CC(O)([C@@H]2CCCCN2)C1 is below 80% in terms of cell viability.
stdout: Fulfilled

stdin: A record lists C=CCc1cccc(/C=N/NC(=O)CN2CCN(Cc3ccccc3)CC2)c1O . Is its cell viability below 80%?
stdout: Fulfilled

stdin: Strictly below 80% in cell viability? CC[C@@]1(O)C(=O)OCC/2=C1/C=C3\N(CC4=CC5=CC(=CC=C5N=C34)O)C2=O
stdout: Fulfilled

* * *

System: SEM cells
procedure.text: cell viability relative to DMSO control; higher = less cytotoxic
study.conditions: RPMI 5 mM glucose + 10% dialyzed FBS; 48 h; 0.19 µM
Overview of recorded cell viability for various compounds
Your answer should be a plain number; it is taken to be in %.

The compound CCN(CC)CCCCNc1ncc2c(n1)N(C)C(=O)N(c1c(Cl)c(OC)cc(OC)c1Cl)C2 showed cell viability equal to 116

Per the record, CN1\N=C(N)/C2=C[N]([C@@H]3O[C@H](CO[P](O)(O)=O)[C@@H](O)[C@H]3O)C4=C2C1=NC=N4 has cell viability of 13.4

GET /value?item= CC(/C=C/C(=O)NO)=C\[C@@H](C)C(=O)c1ccc(N(C)C)cc1 &field=cell viability returns 102

* * *

System: P12-Ichikawa
procedure.text: cell viability relative to DMSO control; higher = less cytotoxic
study.conditions: RPMI 5 mM glucose + 10% FBS; 48 h; 5.12 µM
Attribute: cell viability
Report only the number, with the unit % understood.

CC[C@H](C)C(=O)O[C@H]1C[C@H](O)\C=C2\C=C/[C@H](C)[C@H](CC[C@@H](O)C[C@@H](O)CC(O)=O)[C@@H]12 ... 98.1

The value of cell viability recorded for CC(C)c1cc(C(=O)N2Cc3ccc(CN4CCN(C)CC4)cc3C2)c(O)cc1O when tested on P12-Ichikawa reads 41.3

Lab note: molecule N[S+](=O)([O-])c1cccc2c1C(=O)c1cccc(O)c1C2=O tested on P12-Ichikawa; recorded cell viability was 96.7

* * *

Test system: P12-Ichikawa
procedure.text: cell viability relative to DMSO control; higher = less cytotoxic
study.conditions: RPMI 5 mM glucose + 10% FBS; 48 h; 46.1 µM
property.name: cell viability (%)
Express it in %; write the number only.

Solved cases below.
CC[C@H](C)C(=O)O[C@H]1C[C@H](O)\C=C2\C=C/[C@H](C)[C@H](CC[C@@H](O)C[C@@H](O)CC(O)=O)[C@@H]12 ... 96.5
CCC\C1=C\C(=O)NC(=S)N1 ... 7.58
C[S+](=O)([O-])c1ccc(-c2cnc(N)c(C(=O)Nc3ccccc3)n2)cc1 ... 80.5
CC(/C=C/C(=O)NO)=C\[C@@H](C)C(=O)c1ccc(N(C)C)cc1 ... 0.409
Nc1cccc2c1CN([C@H]1CCC(=O)NC1=O)C2=O ... 92.7
OC(=O)C(CC/1=C/C(=O)NC2=CC=CC=C12)NC(=O)C3=CC=C(Cl)C=C3 (centres undefined) ... 141
CN1CCN2c3ncccc3Cc3ccccc3C2C1 (centres undefined) ... 101
CN[C@@H](C)C(=O)N[C@H]1CN(C(=O)CC(C)C)CC[C@H]2CC[C@@H](C(=O)NC(c3ccccc3)c3ccccc3)N2C1=O ... 10.2

Measured cell viability, CN(C)CCOc1ccc(-c2nc(-c3ccncc3)c(-c3ccc4c(c3)CC/C4=N\O)[nH]2)cc1 : 65.6

* * *

Tested on: P12-Ichikawa
procedure.text: cell viability relative to DMSO control; higher = less cytotoxic
study.conditions: RPMI 5 mM glucose + 10% dialyzed FBS; 48 h; 0.569 µM
Items are presented alongside their recorded cell viability.
Please respond with the number in % and leave the unit unwritten.

Example cases with answers are listed next.
CC(/C=C/C(=O)NO)=C\[C@@H](C)C(=O)c1ccc(N(C)C)cc1 ... 91.8
O=C\1N(N\C=C1[N]2C=CN=N2)C3=NC=NC(=C3)N4CCOCC4 ... 34.4
CC1(N2CCC(n3c([C@@H]4CCCNC4)nc4ccccc43)CC2)CCCCCCC1 ... 110

Reported P12-Ichikawa cell viability for item COC1=C2C[C@@H](C)C[C@H](OC)[C@H](O)[C@@H](C)/C=C(\C)[C@H](OC(N)=O)[C@@H](OC)/C=C/C=C(\C)C(=O)NC(=CC1=O)C2=O was 108

The molecule CCOC(=O)c1cncn1[C@H](C)c1ccccc1 , tested on P12-Ichikawa, showed cell viability of 126

// molecule Cc1ccc([S+](=O)([O-])Nc2nc3ccccc3nc2Nc2ccc3nsnc3c2)cc1 , assay P12-Ichikawa, cell viability value: 101

Entry CCN(C(=O)C/1=C(O)/C2=C(C=CC=C2Cl)N(C)C1=O)C3=CC=CC=C3 : cell viability on P12-Ichikawa = 82.8

# lookup: CCCCCCCCCC(=O)N[C@@H](Cc1c[nH]c2ccccc12)C(=O)N[C@H](CC(N)=O)C(=O)N[C@@H](CC(=O)O)C(=O)N[C@@H]1C(=O)NCC(=O)N[C@@H](CCCN)C(=O)N[C@@H](CC(=O)O)C(=O)N[C@H](C)C(=O)N[C@@H](CC(=O)O)C(=O)NCC(=O)N[C@H](CO)C(=O)N[C@@H]([C@@H](C)CC(=O)O)C(=O)N[C@@H](CC(=O)c2ccccc2N)C(=O)O[C@@H]1C on P12-Ichikawa, cell viability = 117

The reported cell viability value, P12-Ichikawa, for CN[C@@H]1Cc2cccc3[nH]c(=O)n(c23)C1 reads 115

Known value: P12-Ichikawa cell viability of the molecule CC[C@@]1(O)C(=O)OCC/2=C1/C=C3\N(CC4=CC5=CC(=CC=C5N=C34)O)C2=O equals 10.2

Sample COC[C@H](c1ccc(C(F)(F)F)cc1)N1CCN(C2(C)CCN(C(=O)c3c(C)ncnc3C)CC2)C[C@H]1C.O=C(O)/C=C\C(=O)O , system: P12-Ichikawa. Its cell viability is 117

COc1ccc2c(c1)c(CC(=O)OCC(=O)O)c(C)n2C(=O)c1ccc(Cl)cc1 on P12-Ichikawa gives cell viability = 120

The observed cell viability for CC(C)c1ccc(Cn2ccc3c4c(N)nc(NC5CC5)nc4ccc32)cc1 when tested with P12-Ichikawa stands at 132

Recorded cell viability for O=C(O)CCn1c2c(c3ccccc31)C[C@H](N[S+](=O)([O-])c1ccc(F)cc1)CC2 on P12-Ichikawa was 109

Entry C[C@]12CC[C@@H]3c4ccc(O)cc4CC[C@H]3[C@@H]1C[C@@H](O)[C@@H]2O , P12-Ichikawa data, cell viability value: 123

cell viability of COc1cc2c(Nc3ccc(Br)cc3F)ncnc2cc1OCC1CCN(C)CC1 , assay on P12-Ichikawa, is 84.5

Per the reported P12-Ichikawa data, CNC[C@H](O)c1cccc(O)c1 has cell viability of 101

The measured cell viability that O=C(Nc1ncc(SCCN2CCCC2)s1)[C@]1(c2ccc([S+](=O)([O-])C3CC3)cc2)C[C@H]1C1CCCCC1 showed for P12-Ichikawa is 120

With P12-Ichikawa as the test system, Cc1cc(Nc2nc(N[C@@H](C)c3ccc(F)cc3)c(C#N)cc2F)n[nH]1 showed cell viability of 87.5

Readout cell viability for CC(C)C[C@H](NC(=O)CNC(=O)c1cc(Cl)ccc1Cl)B(O)O , test system P12-Ichikawa, was 6.52

Form field cell viability for item CCC(=O)N[C@H]1CC[C@H](C(=O)N(C)c2ccc(-c3nc4ccccc4o3)cc2)C1 on P12-Ichikawa: 98.2

Field cell viability (P12-Ichikawa), entry CCN(CC)CCCCNc1ncc2c(n1)N(C)C(=O)N(c1c(Cl)c(OC)cc(OC)c1Cl)C2 : 106

// cell viability (P12-Ichikawa) for CN1\N=C(N)/C2=C[N]([C@@H]3O[C@H](CO[P](O)(O)=O)[C@@H](O)[C@H]3O)C4=C2C1=NC=N4 = 72.3

Considering COc1ccc2[nH]c([S+]([O-])Cc3ncc(C)c(OC)c3C)nc2c1 (stereo unspecified) , its cell viability with P12-Ichikawa was recorded as 76.7

Value (cell viability, P12-Ichikawa) for record CC1=C(CC(=O)O)c2cc(F)ccc2/C1=C\c1ccc([S+](C)[O-])cc1 (stereo unspecified) = 109

Bench note, P12-Ichikawa: COc1cc2nc(-c3cc(F)ccc3O)nc(N[C@@H]3CNC[C@H]3C(C)(C)O)c2cc1OC , cell viability reads 124
